PROTOCOL DETAILS: yeast display, Sf9 membrane polyspecificity reagent, FACS + sequencing; frameworks hold sequencing errors
MEASURE NAME: polyreactivity (PSR sort gate)

QVQLVESGGGLVQAGGSLRLSCAASGNTFVYYAMGWYRQAPGKERELVAGISRRSGSTYYADSVKGRFTISRDNAKNTVYLQMNSLKPEDTAVYYCAIGRTYLDAEDYWGQGSQVTVSS	low polyreactivity
QVQLVESGGGLVQAGGSLRLRCAASGIIQQSYALGWSRQAPGKERELVAAIRGSDGSTYYADSVKGRFTISRDNAKNTVYLQMNSLKPEDTAVYYCNADTRTWPLDYWGQGTQVTVSS	low polyreactivity

====

PROTOCOL DETAILS: yeast display, Sf9 membrane polyspecificity reagent, FACS + sequencing; frameworks hold sequencing errors
MEASURE NAME: polyreactivity (PSR sort gate)

In the examples that follow, each entry is paired with its recorded polyreactivity (PSR sort gate).
QVQLVEAGGGLVQAGGSLRLSCAASGLTFTVYAMGWYRQAPGKERELVAAITGSGTSTYYADSVKGRFTISRDNAKNTVYLQMNSLKPEDTAVYDCAADLYYYGFFWDFGDGFDYWGQGTQVTVSS	low polyreactivity
QVQLVESGGGLVQAGGSLRLSCAASGFTFLSNAMGWYRQAPGKERELVATINSGGSTNYADSVKGRFTISRDNAKNTVYLQMNSLKPEDTAVYYCAAKLWRYYHYDYWGQGTQVTVSS	low polyreactivity
QVQLVESGGGLVQAGGSLRLSCAASGYTFQGYAMGWYRQAPGKERELVAGISRSGGRTYYADSVKGRFTISRDNAKNTVYLQMNSLKPEDTAVYYCAASYQVRYDYWGQGTQVTVSS	high polyreactivity
QVQLVESGGGLVQAGGSLRLSCAASGRTFLIYAMGWYRQAPGKERELVAAITNGVDSTYYADSVKGRFTISRDNAKNTVYLQMNSLKPEDTAVYYCNADTVVEWYSPSREYDYWGQGTQVTVSS	low polyreactivity
QVQLVESGGGLVQAGGSLRLSCAASGRTFPRYAMGWYRQATGKERELVAAISVRAGITYYADSVKGRFTISRDNAKNTVYLQMNSLKPEDTAVYYCAKDHWTTSYDEGDYWGQGTQVTVSS	low polyreactivity

Now for a further sequence.
// returns reported polyreactivity (PSR sort gate) for input QDQLVESGGGLVQAGGSLSLSCAASGRTLWRNTMGWYRQAPGKERELVAAITTRGGSTYYADSVKGRFTISRDTAKNTVYLQLNSLKPEDTAVYYCAARTYTGEGSGRFYYWGQGTQVTVSS
high polyreactivity

====

PROTOCOL DETAILS: yeast display, Sf9 membrane polyspecificity reagent, FACS + sequencing; frameworks hold sequencing errors
MEASURE NAME: polyreactivity (PSR sort gate)

// worked examples, polyreactivity (PSR sort gate) included
QVQLVESGRGLVQAGGSLRLRCAASGSTFVYNTMGWYRQAPGKEMELVASISSDGNTYYADSVKGRFTISRDNAKNTVYLQMNSLKPEDTAVFYCGARYYYDWRFVGYDYWGQGTQVTVSS	low polyreactivity
QVQLVESGGGLVQAGGSLRLSCAASGSTFFWYAMGRYRQAPGKERELVAAISKTGGSTYYADSVKGRFTISRDNAKNTFYLQMNSLKPEDTAVYYCNAVPYASKAARSFDYWGQGTQVTVSS	low polyreactivity
QVQLVESGGGLVQAGGSLRLSCAASGSIFVANAMGWYRQAPGKERELVAAISGSGDRTRYADSVKGRFTISRDNAKNTVYLQMNSLKPEDTAVYYCNARYYASGNLYNYWGQGTQVTVSS	high polyreactivity
QVRLVESGGGLVQAGCSLRLSCAASGSTFWSYAMGWYRQAPGKERELVAAISWSGDSTYYADSVKGRFTISRDNAKNTVYLQMNSLKPEDSAVYYCAADYTGSFYTYDYWGQGTQVTVSS	low polyreactivity
QVQLVESGGGLVQAGGSLRLSCAASGYIYYQYAMGWSRQAPGKERELVAGINWRGGSTYADSVKGRFTISRDNAKNTVYLQMNSLKPEDTEVYYCNAKQYRQDVFRRPSYYAYYYWGQGTQVTVSS	high polyreactivity

Entry QVHLVESGGGLVQAVSSLRLSCAASGSTFRAYAMGWYRQEPGKDRELVARITFSGGSTYYADSVKGRFTISRDNAKNTVYLQMNSLKPEDTAVYYCNARRTYLDRYNYWGQGTQVTVSS has what polyreactivity (PSR sort gate)?
high polyreactivity

Cool, now QVQLVESGGGLVQAGGSLRLSCAASGLTLYRNAMGWYRQAPGKERELVATINFSGGSKYYADSVKGRFTISRDNAKNTVYLQMNSLKPEDTAVYFCNARGYWHYSPTKFDYWGQGTQVTVSS
low polyreactivity
